The reported numbers originate from patent US20070243244A1.

assay.name: pharmacokinetics after single oral (gavage) and intravenous dose in 0.9% saline (Example 2)
Design: species or system cynomolgus monkeys
condition: male, cynomolgus monkey, in vivo, iv, 5 mg/kg, Plasma Concentrations
endpoint: concentration at 0 hr

>>> value("CN(C)c1cc(NC(=O)CNC(C)(C)C)c(O)c2c1C[C@H]1C[C@H]3[C@H](N(C)C)C(O)=C(C(N)=O)C(=O)[C@@]3(O)C(O)=C1C2=O")
"< 100 ng/mL"

----------
assay.name: pharmacokinetics after single oral (gavage) and intravenous dose in 0.9% saline (Example 2)
Parameters: species or system cynomolgus monkeys
condition: male, cynomolgus monkey, in vivo, po, 15 mg/kg, Plasma Concentrations, Mean
endpoint: concentration at 32 h (ng/mL)

>>> value("CN(C)c1cc(NC(=O)CNC(C)(C)C)c(O)c2c1C[C@H]1C[C@H]3[C@H](N(C)C)C(O)=C(C(N)=O)C(=O)[C@@]3(O)C(O)=C1C2=O [Tigecycline]")
0

----------
assay.name: pharmacokinetics after single oral (gavage) and intravenous dose in 0.9% saline (Example 2)
Parameters: species or system cynomolgus monkeys
condition: male, cynomolgus, cynomolgus monkey, in vivo, iv, 5 mg/kg, Plasma Concentrations, Mean
endpoint: concentration at 0.083 hr (ng/mL)

>>> value("CN(C)c1cc(NC(=O)CNC(C)(C)C)c(O)c2c1C[C@H]1C[C@H]3[C@H](N(C)C)C(O)=C(C(N)=O)C(=O)[C@@]3(O)C(O)=C1C2=O")
15100

----------
assay.name: oral bioavailability of encapsulated microparticulate (100 mg) enteric coated formulation (Example 3)
Design: species or system cynomolgus monkeys
condition: male, cynomolgus monkey, in vivo, po, 100 mg, Tmax, Mean
endpoint: Tmax (h)

>>> value("CN(C)c1cc(NC(=O)CNC(C)(C)C)c(O)c2c1C[C@H]1C[C@H]3[C@H](N(C)C)C(O)=C(C(N)=O)C(=O)[C@@]3(O)C(O)=C1C2=O [Tigecycline]")
2.25

----------
assay.name: pharmacokinetics after single oral (gavage) and intravenous dose in 0.9% saline (Example 2)
Parameters: species or system cynomolgus monkeys
condition: male, cynomolgus monkey, in vivo, iv, 5 mg/kg, Plasma Concentrations
Experimental: Four male cynomolgus monkeys were used in the study. […] The dosing volume was 10 mL/kg. By using 0.2 mL of monkey plasma sample, the assay limit of quantitation (LOQ) was 100 ng/mL and the curve range was between 100 and 6400 ng/mL. AUC0-4 was calculated by AUC0-t+Ct/λ, where AUC0-t was the AUC from time 0 to t, the last quantifiable time point and Ct was the last quantifiable concentration. […] Systemic clearance (CLT) after the iv dose was calculated using the formula of Dose/AUC0-4.
endpoint: concentration at 12 hr (ng/mL)

>>> value("CN(C)c1cc(NC(=O)CNC(C)(C)C)c(O)c2c1C[C@H]1C[C@H]3[C@H](N(C)C)C(O)=C(C(N)=O)C(=O)[C@@]3(O)C(O)=C1C2=O")
265

----------
assay.name: pharmacokinetics after single oral (gavage) and intravenous dose in 0.9% saline (Example 2)
Parameters: species or system cynomolgus monkeys
condition: male, cynomolgus monkey, in vivo, po, 15 mg/kg, Plasma Concentrations, Mean
endpoint: concentration at 1 h

>>> value("CN(C)c1cc(NC(=O)CNC(C)(C)C)c(O)c2c1C[C@H]1C[C@H]3[C@H](N(C)C)C(O)=C(C(N)=O)C(=O)[C@@]3(O)C(O)=C1C2=O")
"131 ng/mL"

----------
assay.name: pharmacokinetics after single oral (gavage) and intravenous dose in 0.9% saline (Example 2)
Parameters: species or system cynomolgus monkeys
condition: male, cynomolgus, cynomolgus monkey, in vivo, iv, 5 mg/kg, Vdss, Mean
endpoint: Vd (L/kg)

>>> value("CN(C)c1cc(NC(=O)CNC(C)(C)C)c(O)c2c1C[C@H]1C[C@H]3[C@H](N(C)C)C(O)=C(C(N)=O)C(=O)[C@@]3(O)C(O)=C1C2=O")
3.47

----------
assay.name: pharmacokinetics after single oral (gavage) and intravenous dose in 0.9% saline (Example 2)
Design: species or system cynomolgus monkeys
condition: male, cynomolgus monkey, in vivo, iv, 5 mg/kg, Plasma Concentrations
Method: Four male cynomolgus monkeys were used in the study. […] The dosing volume was 10 mL/kg. By using 0.2 mL of monkey plasma sample, the assay limit of quantitation (LOQ) was 100 ng/mL and the curve range was between 100 and 6400 ng/mL. AUC0-4 was calculated by AUC0-t+Ct/λ, where AUC0-t was the AUC from time 0 to t, the last quantifiable time point and Ct was the last quantifiable concentration. […] Systemic clearance (CLT) after the iv dose was calculated using the formula of Dose/AUC0-4.
endpoint: concentration at 32 hr

>>> value("CN(C)c1cc(NC(=O)CNC(C)(C)C)c(O)c2c1C[C@H]1C[C@H]3[C@H](N(C)C)C(O)=C(C(N)=O)C(=O)[C@@]3(O)C(O)=C1C2=O")
"< 0.1 µg/mL"

----------
assay.name: pharmacokinetics after single oral (gavage) and intravenous dose in 0.9% saline (Example 2)
Parameters: species or system cynomolgus monkeys
condition: male, cynomolgus monkey, in vivo, po, 15 mg/kg, Plasma Concentrations
endpoint: concentration at 32 h

>>> value("CN(C)c1cc(NC(=O)CNC(C)(C)C)c(O)c2c1C[C@H]1C[C@H]3[C@H](N(C)C)C(O)=C(C(N)=O)C(=O)[C@@]3(O)C(O)=C1C2=O [Tigecycline]")
"< 100 ng/mL"

----------
assay.name: pharmacokinetics after single oral (gavage) and intravenous dose in 0.9% saline (Example 2)
Parameters: species or system cynomolgus monkeys
condition: male, cynomolgus monkey, in vivo; monkeys, single oral (gavage) dose of 15 mg/kg, 2 hr, individual animals; read-out: Plasma Concentrations
endpoint: concentration at 2 hr (ng/mL)

>>> value("CN(C)c1cc(NC(=O)CNC(C)(C)C)c(O)c2c1C[C@H]1C[C@H]3[C@H](N(C)C)C(O)=C(C(N)=O)C(=O)[C@@]3(O)C(O)=C1C2=O")
191

----------
assay.name: oral bioavailability of encapsulated microparticulate (100 mg) enteric coated formulation (Example 3)
Set-up: species or system cynomolgus monkeys
condition: male, cynomolgus monkey, in vivo, po, 16 mg/kg, tmax
endpoint: Tmax (h)

>>> value("CN(C)c1cc(NC(=O)CNC(C)(C)C)c(O)c2c1C[C@H]1C[C@H]3[C@H](N(C)C)C(O)=C(C(N)=O)C(=O)[C@@]3(O)C(O)=C1C2=O")
2.25

----------
assay.name: pharmacokinetics after single oral (gavage) and intravenous dose in 0.9% saline (Example 2)
Design: species or system cynomolgus monkeys
condition: male, cynomolgus, cynomolgus monkey, in vivo, iv, 5 mg/kg, Plasma Concentrations, Mean
endpoint: concentration at 8 hr (ng/mL)

>>> value("CN(C)c1cc(NC(=O)CNC(C)(C)C)c(O)c2c1C[C@H]1C[C@H]3[C@H](N(C)C)C(O)=C(C(N)=O)C(=O)[C@@]3(O)C(O)=C1C2=O")
392

----------
assay.name: pharmacokinetics after single oral (gavage) and intravenous dose in 0.9% saline (Example 2)
Set-up: species or system cynomolgus monkeys
condition: male, cynomolgus monkey, in vivo, po, 15 mg/kg, Cmax
endpoint: Cmax (ng/mL)

>>> value("CN(C)c1cc(NC(=O)CNC(C)(C)C)c(O)c2c1C[C@H]1C[C@H]3[C@H](N(C)C)C(O)=C(C(N)=O)C(=O)[C@@]3(O)C(O)=C1C2=O")
163

----------
assay.name: pharmacokinetics after single oral (gavage) and intravenous dose in 0.9% saline (Example 2)
Parameters: species or system cynomolgus monkeys
condition: male, cynomolgus monkey, in vivo, po, 15 mg/kg, Plasma Concentrations, Mean
endpoint: concentration at 4 h (ng/mL)

>>> value("CN(C)c1cc(NC(=O)CNC(C)(C)C)c(O)c2c1C[C@H]1C[C@H]3[C@H](N(C)C)C(O)=C(C(N)=O)C(=O)[C@@]3(O)C(O)=C1C2=O [Tigecycline]")
0

----------
assay.name: pharmacokinetics after single oral (gavage) and intravenous dose in 0.9% saline (Example 2)
Design: species or system cynomolgus monkeys
condition: male, cynomolgus, cynomolgus monkey, in vivo, iv, 5 mg/kg, Plasma Concentrations, Mean
endpoint: concentration at 48 hr (ng/mL)

>>> value("CN(C)c1cc(NC(=O)CNC(C)(C)C)c(O)c2c1C[C@H]1C[C@H]3[C@H](N(C)C)C(O)=C(C(N)=O)C(=O)[C@@]3(O)C(O)=C1C2=O")
27
